# PROCEDURE TEXT: Biodistribution experiments in normal mice after i.v. injection
# Format: in vivo
# CONDITION DETAILS: male, ddY, mouse, in vivo, iv, total radioactivity, Biodistribution of radioactivity, Heart
Where a SMILES comes first, the peptide text is derived from it. [ ]: non-standard residue; d: D form. The star is where a group is joined. DOTA = O=C(O)CN1CCN(CC(=O)O)CCN(CC(=O)*)CCN(CC(=O)O)CC1
MEASURED PARAMETER: tissue uptake dose at 10 min (%ID)

O=C(O)C[C@@H](NC(=O)[C@@H](CC(=O)O)NC(=O)CN1CCN(CC(=O)O)CCN(CC(=O)O)CCN(CC(=O)O)CC1)C(=O)O [^67Ga-DOTA-(D-Asp)2, metal not drawn] ({DOTA}-[dD]-[dD]-OH)
0.86
O=C(O)C[C@@H](NC(=O)[C@@H](CC(=O)O)NC(=O)[C@@H](CC(=O)O)NC(=O)[C@@H](CC(=O)O)NC(=O)[C@@H](CC(=O)O)NC(=O)CN1CCN(CC(=O)O)CCN(CC(=O)O)CCN(CC(=O)O)CC1)C(=O)O [^67Ga-DOTA-(D-Asp)5, metal not drawn] ({DOTA}-[dD][dD][dD][dD][dD]-OH)
1.03
O=C(O)CC[C@H](NC(=O)[C@H](CCC(=O)O)NC(=O)[C@H](CCC(=O)O)NC(=O)[C@H](CCC(=O)O)NC(=O)[C@H](CCC(=O)O)NC(=O)[C@H](CCC(=O)O)NC(=O)[C@H](CCC(=O)O)NC(=O)[C@H](CCC(=O)O)NC(=O)[C@H](CCC(=O)O)NC(=O)[C@H](CCC(=O)O)NC(=O)[C@H](CCC(=O)O)NC(=O)[C@H](CCC(=O)O)NC(=O)[C@H](CCC(=O)O)NC(=O)[C@H](CCC(=O)O)NC(=O)CN1CCN(CC(=O)O)CCN(CC(=O)O)CCN(CC(=O)O)CC1)C(=O)O [^67Ga-DOTA-(L-Glu)14, metal not drawn]
0.67
